B1: TPR 5TU (parent)
chain: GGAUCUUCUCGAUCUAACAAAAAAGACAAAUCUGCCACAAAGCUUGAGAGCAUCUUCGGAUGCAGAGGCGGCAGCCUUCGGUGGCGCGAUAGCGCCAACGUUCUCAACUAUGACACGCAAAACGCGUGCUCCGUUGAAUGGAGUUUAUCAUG

Variants of: B1
assay-comment: polymerase ribozyme fitness, log enrichment relative to wild type (log ratio); higher = more active; in vitro selection for triplet polymerase activity
Fewer inactive variants are shown than the library holds.
property: polymerase ribozyme fitness (log ratio)

1) U9A A26U A47C A49G G84A G86C :: ≤ -4.2
2) A19C C54A U78G C96U G141C :: ≤ -4.2
3) A26U C51A C54A C57U U90C C93G :: ≤ -4.2
4) A49C G94C U104G :: ≤ -4.2
5) C14U C18A A28U C54A A91G U148G :: ≤ -4.2
6) C27U U33A G92C :: -3.92
7) C54A U127C :: -2.28
8) C85U U134C U144A C149A :: -4.1
9) A49C U53A A106G :: ≤ -4.2
10) U4C C18U G48U A49C G68U G74A C76A G88U C116G :: ≤ -4.2
11) C85U C99G G126A U135G :: ≤ -4.2
12) G34A G74U G94A C116G :: ≤ -4.2
13) G25C C27A A28G A40U C149A :: ≤ -4.2
14) U82C G88C C105U G141A C149U :: ≤ -4.2
15) G58A C87U C108U A142C :: -3.89
16) A37C G46A U61A G74A C93U A122U :: ≤ -4.2
17) A40G A41C C43A G83C C87G C96A :: ≤ -4.2
18) C10A C76G G81A G86U A137U :: ≤ -4.2
19) C14G A39U U55G C95U :: ≤ -4.2
20) C10G G34U C85A :: ≤ -4.2
21) A17U C18A C54U U55G C75U C95A :: -1.89
22) C8G C93U :: -3.64
23) C96U A97C :: 0.0607
24) A22G A40G A41C C57U A107U A120U :: ≤ -4.2
25) C63G G92U U102C A120G :: -1.8
26) G62C G94C :: -2.03
27) C63U C69A C85U A97C C118G G126C :: -3.97
28) C35U G88A A115C A119G :: -3.86
29) A17U A24U C36A G59A U77G G83A A98U C105U C116G :: ≤ -4.2
30) A16G G42A A52G C95U C96A C99G :: ≤ -4.2
31) A60G C93A A97C A110U C123U U130G G133A :: ≤ -4.2
32) G83C C125U U146G :: -3.89
33) G140A :: -2.67
34) G59A G140C U144G :: -3.79
35) A21C A41U C76U G84A C95U U111G :: -4.18
36) C57A G58A C79U G88U :: ≤ -4.2
37) A17C G74C C87U G92C C105G G136U :: ≤ -4.2
38) A60G A73U C93U :: -1.38
39) A20C A23U C27A G58U C72A A89G C99A A107C :: ≤ -4.2
40) A47U G141A :: -1.46
41) C27A G74A C76G G86C G128A C129U U144C :: ≤ -4.2
42) A17U U56G C125G :: -1.81
43) G50A G68C U77C U82G G92C :: ≤ -4.2
44) A37C A47U G58A U61G A91G A107C A113G A138U :: ≤ -4.2
45) A47G G59C G92U C99A C118G :: -3.37
46) U31A U144A :: 0.137
47) C38U A49C C85U G92U C103A U111C U144C :: ≤ -4.2
48) C93G A119C :: -3.47
49) U56A G88C A142U :: ≤ -4.2
50) A23G U44A U61A G70U C76G C93G G143C :: ≤ -4.2
51) C93U C116U C123A :: -1.16
52) A19G U109G U139C U144C U148C :: -4.14
53) C18U C38U A39C G92U C103U :: ≤ -4.2
54) A29C U53A A73C G84C C103G A107U U134G :: ≤ -4.2
55) G86U U104A G117C :: -2.37
56) A22U G133C :: -1.46
57) U53A A60U U61A C69G C96U :: -3.74
58) C69U G86C :: ≤ -4.2
59) A20U G86A C87G A91U C118A :: ≤ -4.2
60) C5G U55A C93U C118A :: -3.5
61) A66G C96A A98G G136U :: ≤ -4.2
62) C35U C76G A89U A97G :: ≤ -4.2
63) A89C C95G :: -3.24
64) A91U C95G C116A G143U A147C :: ≤ -4.2
65) C32G U44A G65A C85G :: ≤ -4.2
66) C79U G92U :: -1.44
67) G48C G94U C96U C118G A122U :: -3.42
68) G83C A115U A120U :: -1.99
69) G83U G94A :: -0.328
70) C5A C54U U55A C95G C96A :: -4.05
71) C38U U44A A47U G67C C69U G84A :: ≤ -4.2
72) U9C C14G :: ≤ -4.2
73) U9G C87U :: -4.11
74) C14G C85U :: -2.1
75) U61A A91U :: ≤ -4.2
76) A22G G83A A91U G100U :: ≤ -4.2
77) G62C A115C :: -1.06
78) U56G C85G :: -2.54
79) A23C U55A C87G C114G G133U G136U :: ≤ -4.2
80) G67C C76U C96U C149U :: ≤ -4.2
81) G42A C87G :: ≤ -4.2
82) C51A G86C A89U A113U G126A G141U :: ≤ -4.2
83) C32A G88C G141C :: ≤ -4.2
84) C57U :: -0.0371
85) U13A A30G A37C G68U :: ≤ -4.2
86) C76U C95A C96U U151G :: ≤ -4.2
87) C35U A115U :: -1.54
88) C54G :: -1.45
89) C76A G92A U134C :: -3.62
90) U7C G48C C85U :: -3.27
91) A26C U144C :: -2.23
